Recorded phosphorylation enrichment values for a group of sequences are listed next.
tested on: Fer (mouse); assay: phosphorylation enrichment, bacterial display (enrichment ratio); higher = better substrate or ligand; peptides without Tyr show the background;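 also: 11-residue human phosphosite peptides and single-mutation variants displayed on the E. coli surface, counted by deep sequencing, each peptide's frequency after selection divided by its frequency in the unselected input library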;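 also: frequency after pTyr selection over input frequency; kinase dosed for 20-30% of maximal phosphorylation in three min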
Lab note: jot down the number only; don't add units.

> print(dat)
                       item.sequence                    property  reported.result
1          AWVARYIFKRL [LPCAT3_Y348]  phosphorylation enrichment            0.482
2        WIGRKYKKVRF [F8_Y442_R437W]  phosphorylation enrichment            0.492
3       TFRPPYYHRDC [HGD_Y333_N337D]  phosphorylation enrichment            0.756
4           SVKVYYKKCWS [EPHA7_Y202]  phosphorylation enrichment            0.483
5  PIFLFYLMDLS [ITGB2_Y131_D128Y_YF]  phosphorylation enrichment             1.24

Quick check: phosphorylation enrichment of HIKHNYECLVY [XRCC5_Y416] ?
0.514

Quick check: phosphorylation enrichment of ASLEAYCKHKY [RXRA_Y403] ?
0.424
